- Test method notes: Toxicity in human erythrocytes assessed as hemolysis at 25 uM after 24 hrs by spectrophotometry
- Assay type: cell-based, Erythrocyte
- Details: read-out: Activity
Measured attribute: hemolysis at 24 h, 25 µM (%)

Molecular string: NC(=S)N/N=C1\CCc2c1cccc2[N+](=O)[O-]
Result: 4.5
//
Molecular string: COc1cc2c(cc1OC)/C(=N/NC(=S)Nc1ccccc1)CC2
Result: 0.4
//
Molecular string: COc1ccc2c(c1OC)CC/C2=N\NC(N)=S
Result: 0.1
//
Molecular string: COc1cc2c(cc1OC)/C(=N/NC(=S)Nc1ccc(C)cc1)CC2
Result: 4.2
